pIC50 for Prostaglandin G/H synthase 1 (Ovis aries, UniProt P05979), merged from several publications.
Biological target: Prostaglandin G/H synthase 1 (Ovis aries, UniProt P05979)
Sequence (P05979 whole entry): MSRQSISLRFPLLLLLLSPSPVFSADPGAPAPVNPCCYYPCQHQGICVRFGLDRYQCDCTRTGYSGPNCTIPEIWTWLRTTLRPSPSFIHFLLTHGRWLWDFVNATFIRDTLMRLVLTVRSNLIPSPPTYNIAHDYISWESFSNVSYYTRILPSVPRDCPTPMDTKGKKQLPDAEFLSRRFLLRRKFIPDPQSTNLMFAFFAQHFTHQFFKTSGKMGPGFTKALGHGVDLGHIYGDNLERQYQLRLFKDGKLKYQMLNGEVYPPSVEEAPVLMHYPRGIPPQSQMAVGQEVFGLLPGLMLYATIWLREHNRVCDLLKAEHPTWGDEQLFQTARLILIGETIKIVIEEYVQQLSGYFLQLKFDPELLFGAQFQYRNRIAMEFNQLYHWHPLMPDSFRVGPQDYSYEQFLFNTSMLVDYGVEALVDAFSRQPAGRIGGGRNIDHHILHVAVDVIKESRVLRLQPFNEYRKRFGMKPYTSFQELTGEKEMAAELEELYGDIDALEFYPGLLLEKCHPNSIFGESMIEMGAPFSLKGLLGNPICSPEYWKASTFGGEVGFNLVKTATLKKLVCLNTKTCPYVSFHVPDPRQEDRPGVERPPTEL
Numbers only, as −log10 of the molar value.

compound: O=C1Nc2ccccc2/C1=C/c1cn(CCCOc2cc(O)c3c(=O)cc(-c4ccccc4)oc3c2)c2ccccc12
pIC50: 3.99

compound: Nc1nc(N)c(F)c(-c2nc(-c3cccc(C(F)(F)F)c3)c(-c3ccncc3)[nH]2)c1F
pIC50: 4.00

compound: CS(=O)(=O)c1ccc(NC(=O)Nc2ccccc2)cc1
pIC50: 5.04

compound: Cc1ccc(NC(=O)c2c(N=Cc3cccnc3)c(C#N)c3n2CCC3)cc1
pIC50: 5.02

compound: COc1ccc(O)c(-c2nc(-c3ccccc3O)n(-c3ccc(S(N)(=O)=O)cc3)n2)c1
pIC50: 4.89

List the reported pIC50 of each compound below.
1. COc1cc([C@@H]2CC(=O)c3c(cc4c(c3O)C=CC(C)(CCC=C(C)C)O4)O2)ccc1O (stereo partly specified)
2. O=c1c2ccccc2nc(CO[N+](=O)[O-])n1NS(=O)(=O)c1ccccc1
3. COc1ccc(/C=C(/C(=O)c2ccc(S(C)(=O)=O)cc2)c2ccccc2)cc1
4. COC1(c2cccc(CNc3ccc(Cl)cc3OCc3ccccc3)c2)CCOCC1
5. CSc1ccc(-c2cc(-c3ccc(S(C)(=O)=O)cc3)c(-c3ccccc3)c(=O)o2)cc1
6. Cn1c(Br)cc(-c2ccc(F)cc2)c1-c1ccc(S(C)(=O)=O)cc1
7. COc1ccc(-c2nc(Nc3ccc(Br)cc3)c3c4c(sc3n2)CCCC4)cc1

Given back:
[4.58, 4.01, 4.97, 4.46, 4.51, 3.29, 5.02]
